MEASURED ON: Ghrelin receptor (Homo sapiens)
Sequence (Q92847 whole entry): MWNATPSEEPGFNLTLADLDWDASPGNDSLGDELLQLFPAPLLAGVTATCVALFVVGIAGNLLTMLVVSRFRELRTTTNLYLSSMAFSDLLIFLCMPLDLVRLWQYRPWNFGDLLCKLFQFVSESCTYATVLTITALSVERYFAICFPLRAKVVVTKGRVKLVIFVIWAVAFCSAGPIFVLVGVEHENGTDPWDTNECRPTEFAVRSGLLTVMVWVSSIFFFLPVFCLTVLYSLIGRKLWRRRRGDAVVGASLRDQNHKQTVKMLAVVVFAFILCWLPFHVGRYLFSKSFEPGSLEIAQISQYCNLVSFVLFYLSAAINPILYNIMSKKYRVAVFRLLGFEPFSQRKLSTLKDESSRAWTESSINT
METHOD DESCRIPTION: Receptor Selection and Amplification Technology (R-SAT) assay
Assay type: cell-based
Design: expressed in transfected cells; host or cells: NIH3T3
TEST SETTINGS: read-out: RSAT Eff(%)
PROPERTY: Emax (%)

>>> print(df.to_string())
                                    molecule  measured
 0  COc1cccc2c(C(=O)NCc3cccc(Cl)c3)cn(CCCN3C4CCC3CC(CC(=O)c3ccccc3)C4)c12 (stereo not drawn)       104
 1  CC(=O)c1c(C)n(CCCN2CCC(Cc3ccccc3Cl)C2)c2c(Br)cccc12 (stereo not drawn)        38
 2  COc1cccc2c(C(=O)C3CC3)cn(CCCN3CCC(c4nc(-c5ccncc5)no4)CC3)c12        87
 3  COc1cccc2c(C(=O)NCC(C)C)cn(CCCN3CCC(Oc4ccc(F)cc4)CC3)c12        90
 4  COc1cccc2c(C(=O)c3ccccc3)cn(CCCN3CCCN(CCc4ccccc4)CC3)c12       124
 5  CC(C)CC(=O)c1cn(CCCN2CCN(C(C)c3ccccc3)CC2)c2ccccc12 (stereo not drawn)       106
 6  COc1cccc2c(C(=O)NCc3cccc(C)c3)cn(CCCN3CCC(Oc4ccc(Cl)cc4)CC3)c12       115
 7  COc1cccc2c(C(=O)NCc3cccc(C)c3)cn(CCCN3CCC(Oc4cccc(Cl)c4)CC3)c12        93
 8  COc1cccc2c(C(=O)NCC(C)C)cn(CCCN3CCC(Oc4ccc(Cl)cc4)CC3)c12       146
 9  COc1cccc2c(C(=O)NCc3cccc(Cl)c3)cn(CCCN3C4CCC3CC(CC(=O)c3ccc(Cl)cc3)C4)c12 (stereo not drawn)        76
10  CCCCC[C@H]1C[C@H]2CC[C@@H](C1)N2CCCn1cc(C(=O)NCC(C)C)c2cccc(OC)c21       135
11  Cc1cccc(CNC(=O)c2cn(CCCN3C4CCC3CC(CCc3ccccc3)C4)c3ccccc23)c1 (stereo not drawn)       108
12  COc1cccc2c(C(=O)NCc3cccc(Cl)c3)cn(CCCN3[C@@H]4CC[C@H]3C[C@@H](CC(=O)c3ccccc3)C4)c12       111
13  CC(C)CNC(=O)c1cn(CCCN2CCC(Oc3ccc(F)cc3)CC2)c2ccccc12        94
14  COc1cccc2c(C(C)=O)cn(CC(C)CN3CCC(CCOc4ccc(Cl)cc4)CC3)c12 (stereo not drawn)        22
15  CC(=O)c1c(C)n(CCCN2CCCN(CCc3ccccc3)CC2)c2c(Br)cccc12        42
16  CC(=O)c1cn(CCCN2CCCC(Oc3ccc(Cl)cc3)C2)c2c(Cl)cccc12 (stereo not drawn)         7
17  COc1cccc2c(C(=O)C3CC3)cn(CCCN3CCN(CCOc4ccc(Cl)cc4)CC3)c12       122
18  COc1cccc2c(C(C)=O)cn(CCCN3CCC(c4nc5ccccc5s4)CC3)c12 [drawing 310]       102
19  COc1cccc2c(C(=O)C3CC3)cn(CCCN3CCC(CCOc4ccc(Cl)cc4)CC3)c12        89
20  COc1cccc2c(C(=O)NCc3cccc(C)c3)cn(CCCN3CCC(c4nc(-c5ccncc5)no4)CC3)c12       121
21  COc1cccc2c(C(C)=O)cn(CC(C)CN3CCC(c4nc(-c5cccnc5)no4)CC3)c12 (stereo not drawn)        83
22  CC(=O)c1cn(CCCN2CCCC(Oc3ccc(Cl)cc3)C2)c2c(C#N)cccc12 (stereo not drawn)        31
23  CC(=O)c1cn(CCCN2CCCC(Oc3ccc(Cl)cc3)C2)c2c(C)cccc12 (stereo not drawn)        -2
24  COc1cccc2c(C(C)=O)cn(CC(C)CN3C4CCC3CC(Oc3ccc(F)cc3)C4)c12 (stereo not drawn)        44
25  COc1cccc2c(C(=O)C3CC3)cn(CCCN3C4CCC3CC(Oc3ccc(Cl)cc3)C4)c12 (stereo not drawn)        86
26  CC(=O)c1cn(CCCN2C3CCC2CC(Oc2ccccc2Cl)C3)c2c(Cl)cccc12 (stereo not drawn)        60
27  CC(=O)c1c(C)n(CCCN2CCCC(Cc3ccccc3Cl)C2)c2c(Br)cccc12 (stereo not drawn)         5
28  COc1cccc2c(C(=O)Cc3ccccc3)cn(CCCN3CCC(CCOc4ccc(Cl)cc4)CC3)c12       121
29  COc1cccc2c(C(=O)NCC(C)C)cn(CCCN3CCN(c4ncc(C(F)(F)F)cc4Cl)CC3)c12       100
30  COc1cccc2c(C(C)=O)cn(CC(C)CN3C4CCC3CC(CCc3ccccc3)C4)c12 (stereo not drawn)       120
31  COc1cccc2c(C(=O)NCc3cccc(Cl)c3)cn(CCCN3CCCN(Cc4ccccc4Cl)CC3)c12       107
32  COc1ccc2[nH]c3c(c2c1)CCN(CCCn1cc(C(=O)CC(C)C)c2ccccc21)C3       123
33  COc1cccc2c(C(=O)C3CC3)cn(CCCN3CCC(Oc4ccc(Cl)cc4)CC3)c12        90
34  COc1cccc2c(C(=O)Cc3ccccc3)cn(CCCN3CCC(c4nc(-c5cccnc5)no4)CC3)c12        88
35  COc1cccc2c(C(=O)NCc3cccc(Cl)c3)cn(CCCN3CCN(CCOc4ccc(Cl)c5ccccc45)CC3)c12        59

----------
Listed compounds paired with reported Emax
MEASURED ON: Ghrelin receptor (Homo sapiens)
METHOD DESCRIPTION: Receptor Selection and Amplification Technology (R-SAT) assay
Type: cell-based
Set-up: expressed in transfected cells; host or cells: NIH3T3
TEST SETTINGS: percent inhibition at saturating ligand, normalized to reference ligand Substance P analog = 100%; read-out: RSAT Eff(%)
PROPERTY: Emax (%)

>>> df
                                   compound  measured
0  CC(=O)c1cn(CCCN2CCC(CCC(C)C)CC2)c2ccccc12        73
1  CC(=O)c1cn(CCCN2C3CCC2CC(OCC2CC2)C3)c2ccc(Br)cc12 (stereo not shown)       102
2  COc1cccc2c(C(C)=O)cn(CCCN3CCN(c4cccc(Cl)c4)CC3)c12        99
3  CC(=O)c1cn(CCCN2CCCN(Cc3ccc(F)cc3)CC2)c2c(Cl)cccc12       115
4  COc1ccc2[nH]c3c(c2c1)CCN(CCCn1cc(C(=O)C(F)(F)F)c2ccccc21)C3       106
5  CCOC(=O)C1CCN(CCCn2cc(C(=O)CC)c3ccccc32)CC1        39
6  O=C(c1cn(CCCN2CCC(Oc3cccc(Cl)c3)CC2)c2ncccc12)C(F)(F)F        23
7  CC(=O)c1c(C)n(CCCN2C3CCC2CC(Oc2ccccc2Cl)C3)c2c(Br)cccc12 (stereo not shown)        37
8  CCc1cccc2c(C(C)=O)cn(CCCN3C4CCC3CC(Oc3ccc(F)cc3)C4)c12 (stereo not shown)        98
9  CCCCC(=O)c1cn(CCCN2CCC(CCCC)CC2)c2ccc(OC)cc12       104

Entry source: patent US20070213359A1
